# Test system: ABCA1 mRNA
# test-method-notes: ABCA1 mRNA induction in THP-1 cells, QuantiGene branched DNA assay
# Type: cell-based
# measurement-context: Homo sapiens, 10 μM test compound, 18-20 hours, read-out: ABCA1 Induction Fold Increase over DMSO Vehicle
Note to self: class = bucket of fold induction at 10 µM, per Low (below 4), Medium (4 to below 6), High (6 or more)

// bin(item) where item = COc1cccc2c1[C@@H]1[C@@H](CO2)C(C)(C)c2ccccc2N1CC(=O)O High

Into which category would you place COc1cccc2c1OC[C@@H]1[C@@H]2Nc2ccc(C(=O)N3CCOCC3)cc2C1(C)C ? Medium

Input COC(=O)c1ccc2c(c1)C(C)(C)[C@H]1COc3cccc(OC)c3[C@H]1N2C ; output its category High

Class? Entry: COC(=O)c1ccc2c(c1)C(C)(C)[C@H]1COc3c(OC)cc(Br)cc3[C@H]1N2 High

The entry to classify is CCOC(=O)CN1c2ccccc2C(C)(C)[C@H]2COc3cccc(OC)c3[C@H]21 ; which class holds it? Low

Which category fits this record: COc1cccc2c1[C@H]1Nc3ccc(C(=O)N(C)C)cc3C(C)(C)[C@H]1CO2 High

Sort COc1cc(Br)cc2c1OC[C@H]1[C@@H]2Nc2ccc(-c3cnco3)cc2C1(C)C into one of the categories. Medium

Which class does CN(C)C(=O)/C=C/c1ccc2c(c1)C1Nc3ccc(C(O)(C(F)(F)F)C(F)(F)F)cc3C(C)(C)C1CO2 (stereo not shown) fall in? Medium

Any idea which band COC(=O)CCN1c2ccccc2C(C)(C)[C@@H]2COc3cccc(OC)c3[C@@H]21 is in? Low

Which bin, given its fold induction at 10 µM, does COc1cc(-c2c(C)noc2C)cc2c1OC[C@H]1[C@@H]2Nc2ccc(-c3cnco3)cc2C1(C)C occupy? High

Which category does the recorded fold induction at 10 µM put CC1(C)C2=C(Nc3ccc(B(O)O)cc31)c1ccc(C(=O)O)cc1OC2 in? Low

Classify this molecule: COc1cccc2c1[C@H]1Nc3ccc(-n4cc(C(=O)N(C)C)cn4)cc3C(C)(C)[C@H]1CO2 High

# bin lookup: classify COc1ccccc1-c1ccc2c(c1)C(C)(C)C1=C(c3cccc(F)c3OC1)N2O by its fold induction at 10 µM Low

Pick a category. Item: COc1cc(Br)cc2c1OC[C@@H]1[C@@H]2Nc2ccc(-c3nnn[nH]3)cc2C1(C)C High

Into which category would you place COc1cc(-c2cn[nH]c2)cc2c1OC[C@H]1[C@@H]2Nc2ccc(C#N)cc2C1(C)C ? Medium

Recorded values, source patent US7432276B2.
